SPOT peptide array binding signal intensity listing for selected binders.
Target: SpBbc1
Assay: SPOT peptide array binding signal intensity (averaged, normalized) (arbitrary units (background-subtracted, floor 0; scale differs between SH3 domains)); higher = stronger binding of the SH3 domain to the peptide
The response must contain the number and no unit.

The binder identified as "DKKTKPTPPPKPSHL" registered its SPOT peptide array binding signal intensity at 3.5

The binder identified as "RRLRDKYKLPIVDAD" registered its SPOT peptide array binding signal intensity at 0.75
